Test: self-splicing fitness, log relative to wild type (ln ratio); higher = more splicing; Tetrahymena group I intron in knt gene, E. coli kanamycin selection, DiMSum; sequences stand for … in CUCUCU…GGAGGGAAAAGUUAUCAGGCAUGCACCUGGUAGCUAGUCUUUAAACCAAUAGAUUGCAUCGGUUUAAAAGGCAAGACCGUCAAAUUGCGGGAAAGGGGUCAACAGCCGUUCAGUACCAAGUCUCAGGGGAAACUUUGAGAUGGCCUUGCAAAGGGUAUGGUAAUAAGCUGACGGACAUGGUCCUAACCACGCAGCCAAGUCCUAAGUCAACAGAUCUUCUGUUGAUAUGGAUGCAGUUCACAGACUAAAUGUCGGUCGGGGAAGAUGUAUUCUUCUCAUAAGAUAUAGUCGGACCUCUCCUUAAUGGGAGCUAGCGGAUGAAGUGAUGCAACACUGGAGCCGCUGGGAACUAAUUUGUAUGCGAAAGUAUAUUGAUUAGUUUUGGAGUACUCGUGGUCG;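 note: selection with 25 µg/mL kanamycin versus none on LB agar overnight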
Conditions: 30 °C
Exercise: for every item that follows, state its recorded self-splicing fitness (ln).
Number, no unit, nothing else.

AACUAGCAAUAUUACGCAUG has a reported self-splicing fitness (ln) of -1.25

Notebook: UCUGAGCAAUAUUACGCUAA , self-splicing fitness (ln) read as -3.49

response.value for UUGAAGCAAUAUUACGCUAG (field: self-splicing fitness (ln)) = -0.524

self-splicing fitness (ln) reading for ACGUAGCAAUAUUACGAUCG : -1.15

Note to self: self-splicing fitness (ln) recorded for CAAAAGCAAUAUUACGAUGC was -3.49

What the record says about ACACAGCAAUAUUACGUCCC : self-splicing fitness (ln) is -1.16

Record AACGAGCAAUAUUACGUAGA . Reported self-splicing fitness (ln): -2.99

// self-splicing fitness (ln) lookup, sequence = CCGUAGCAAUAUUACGUGAA , result: -3.73

Lab note: measured self-splicing fitness (ln) of CUUCAGCAAUAUUACGAUUU was -3.34

# sequence UGACAGCAAUAUUACGUUAU ; its self-splicing fitness (ln) = -3.65

Notebook: GUGCAGCAAUAUUACGACAU , self-splicing fitness (ln) read as -0.587

Lab note: UCGUAGCAAUAUUACGGGGA gave self-splicing fitness (ln) of -2.6

Reported self-splicing fitness (ln) of AGUCAGCAAUAUUACGUGUU : -0.875

AUAAAGCAAUAUUACGCGGA has a reported self-splicing fitness (ln) of -1.65

Short answer for AUUCAGCAAUAUUACGACCU : self-splicing fitness (ln) was -0.21

For AUUUAGCAAUAUUACGUAGC the sequence record lists self-splicing fitness (ln) as -3

###

Experiment: self-splicing fitness, log relative to wild type (ln ratio); higher = more splicing; Tetrahymena group I intron in knt gene, E. coli kanamycin selection, DiMSum; sequences stand for … in CUCUCU…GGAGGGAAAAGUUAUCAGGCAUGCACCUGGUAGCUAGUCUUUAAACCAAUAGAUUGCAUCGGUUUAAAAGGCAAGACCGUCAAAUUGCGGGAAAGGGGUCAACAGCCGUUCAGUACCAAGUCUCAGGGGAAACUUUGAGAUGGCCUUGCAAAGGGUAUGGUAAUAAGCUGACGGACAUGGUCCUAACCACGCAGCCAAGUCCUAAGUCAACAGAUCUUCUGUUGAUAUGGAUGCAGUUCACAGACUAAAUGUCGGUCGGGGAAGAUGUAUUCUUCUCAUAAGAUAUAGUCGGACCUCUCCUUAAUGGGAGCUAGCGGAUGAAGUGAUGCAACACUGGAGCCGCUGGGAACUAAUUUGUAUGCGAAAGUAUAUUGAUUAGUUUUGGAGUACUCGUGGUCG
Settings: 30 °C
Please go through the items and note down their self-splicing fitness (ln).
// no unit, no text: just the number

Sample CAUUAGCAAUAUUACGGCAA ; self-splicing fitness (ln) observed: -2

Measured self-splicing fitness (ln), CUCUAGCAAUAUUACGAUCA : -2.28

Lab book: self-splicing fitness (ln) of GCCAAGCAAUAUUACGACGC noted as -0.669

Recorded self-splicing fitness (ln) (sequence CCCGAGCAAUAUUACGCUAU ): -4.39

Entry UCUUAGCAAUAUUACGAUAA , self-splicing fitness (ln) reported as -2.73

// UGCGAGCAAUAUUACGCUUA : self-splicing fitness (ln) value = -1.98

The sequence identified as AAAAAGCAAUAUUACGCUUG registered its self-splicing fitness (ln) at -1.69

Lab note: GUACAGCAAUAUUACGGCUA gave self-splicing fitness (ln) of 0.707

In plain terms, AAAGAGCAAUAUUACGAAGA has a documented self-splicing fitness (ln) of -4.23

# self-splicing fitness (ln) (sequence: GCUAAGCAAUAUUACGACUA ) is -1.7

GAUUAGCAAUAUUACGCGGC yielded self-splicing fitness (ln) of -3.08

The reported self-splicing fitness (ln) of the sequence CUCUAGCAAUAUUACGGGAA was -2.54

Please fill in: self-splicing fitness (ln) reported for GCAAAGCAAUAUUACGAUGA = -0.578

Please fill in: self-splicing fitness (ln) reported for AGUCAGCAAUAUUACGGCAC = -0.122

The value of self-splicing fitness (ln) measured for the sequence UUGGAGCAAUAUUACGUGUA turned out to be -3.69

// recorded self-splicing fitness (ln) for AUGUAGCAAUAUUACGAUUU : -0.199

GGCGAGCAAUAUUACGGCAU yielded self-splicing fitness (ln) of -0.523

Kindly note the recorded self-splicing fitness (ln) for GAUGAGCAAUAUUACGACUU , which is -0.252

Short answer for CCUAAGCAAUAUUACGAAAU : self-splicing fitness (ln) was -2.79

In plain terms, UGUCAGCAAUAUUACGCGGA has a documented self-splicing fitness (ln) of -2.91

self-splicing fitness (ln) for ACCAAGCAAUAUUACGAGUA is -2.81

self-splicing fitness (ln) in this record for GAUGAGCAAUAUUACGUCCA : -2.12

So for AACAAGCAAUAUUACGGGCU , the logged self-splicing fitness (ln) turned out to be -1.82

Entry GCACAGCAAUAUUACGCCCG — recorded self-splicing fitness (ln) = -1.84

Consider GACUAGCAAUAUUACGGCUA . Its measured self-splicing fitness (ln) is -2.4

For reference, reported self-splicing fitness (ln) for UCCUAGCAAUAUUACGGCAA stands at -2.22

Value of self-splicing fitness (ln) reported for the sequence GGUAAGCAAUAUUACGAUUA is -0.734

Measured self-splicing fitness (ln), GCAAAGCAAUAUUACGUACG : -1.13

Lab book: self-splicing fitness (ln) of CGAGAGCAAUAUUACGCUUG noted as -3.51

self-splicing fitness (ln) recorded for this sequence, GUAUAGCAAUAUUACGGAUC , is -0.654

Consider CGCUAGCAAUAUUACGAUGC . Its measured self-splicing fitness (ln) is -4.31

Field self-splicing fitness (ln) (entry AUGAAGCAAUAUUACGUAUA ) reads -1.53

The reported self-splicing fitness (ln) of the sequence AUGCAGCAAUAUUACGUCGC was -3.69

Documented self-splicing fitness (ln) of CAAAAGCAAUAUUACGGUUA : -1.72

###

Assay: self-splicing fitness, log relative to wild type (ln ratio); higher = more splicing; Tetrahymena group I intron in knt gene, E. coli kanamycin selection, DiMSum; sequences stand for … in CUCUCU…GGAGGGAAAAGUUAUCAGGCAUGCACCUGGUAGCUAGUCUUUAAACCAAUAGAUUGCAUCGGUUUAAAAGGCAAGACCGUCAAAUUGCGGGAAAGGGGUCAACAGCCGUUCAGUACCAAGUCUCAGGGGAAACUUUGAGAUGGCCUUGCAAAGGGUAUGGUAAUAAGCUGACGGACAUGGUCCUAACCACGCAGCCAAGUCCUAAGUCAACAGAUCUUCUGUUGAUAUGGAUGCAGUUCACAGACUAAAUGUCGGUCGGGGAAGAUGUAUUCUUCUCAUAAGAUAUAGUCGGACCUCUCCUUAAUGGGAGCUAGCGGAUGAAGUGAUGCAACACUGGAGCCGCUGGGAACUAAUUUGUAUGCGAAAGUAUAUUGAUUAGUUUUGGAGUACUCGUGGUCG
Details: 37 °C
Decision: self-splicing fitness (ln) >= -0.8 yields T, all other cases yield F.

[ask] Does the reported self-splicing fitness (ln) for GAUUAGCAAUAUUACGGAUA fall at or above the -0.8 mark?
[reply] T

[ask] For this sequence, is measured self-splicing fitness (ln) -0.8 or higher? GAGAAGCAAUAUUACGUUAU
[reply] F

[ask] Reported self-splicing fitness (ln) reaches at least -0.8 for GCGGAGCAAUAUUACGAAUU ?
[reply] F

[ask] Say whether CAUCAGCAAUAUUACGAGUU shows self-splicing fitness (ln) of -0.8 or more.
[reply] F

[ask] Record UUUAAGCAAUAUUACGCGAA ; criterion: self-splicing fitness (ln) no lower than -0.8. Met?
[reply] T

[ask] Test whether the sequence UGUGAGCAAUAUUACGUGUG records self-splicing fitness (ln) of -0.8 or higher.
[reply] T

[ask] Kindly determine if self-splicing fitness (ln) recorded for UGAGAGCAAUAUUACGAGCU is above or exactly -0.8.
[reply] F

[ask] API: above_or_equal(metric=self-splicing fitness (ln), cutoff=-0.8) for item AGUCAGCAAUAUUACGCCAA
[reply] F

[ask] // inclusive: self-splicing fitness (ln) at least -0.8? input: GACUAGCAAUAUUACGGUGA
[reply] T

[ask] # check: self-splicing fitness (ln) of GAACAGCAAUAUUACGAUCG is greater than or equal to -0.8
[reply] T

[ask] Please indicate if the recorded self-splicing fitness (ln) for AACAAGCAAUAUUACGUUUG meets or exceeds -0.8.
[reply] F

[ask] Textbook exercise: given the entry CCAUAGCAAUAUUACGCGUG , state whether its self-splicing fitness (ln) is greater than or equal to -0.8.
[reply] F

[ask] Could you please find out whether AUGAAGCAAUAUUACGGAGA has self-splicing fitness (ln) that meets -0.8 or exceeds it?
[reply] F

[ask] hey, is self-splicing fitness (ln) for this one >= -0.8? GGCCAGCAAUAUUACGAACU
[reply] T

[ask] Does the sequence CGUCAGCAAUAUUACGUAAU have recorded self-splicing fitness (ln) that is -0.8 or more?
[reply] F

The reported measurements were obtained from the supplement of paper PMC7877785.
